Would you kindly list inhibition for each of these compounds?
Assay: blockers of ER-stress CHOP reporter expression – cell-based, unfolded protein response, luciferase reporter, primary screen (AID 2732);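 further: 0% = tunicamycin plus vehicle and 100% = wells without tunicamycin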
Settings: CHO-K1 CHOP-promoter luciferase, tunicamycin-induced, 15-18 h; at 10 µM; active compounds read high
The campaign covered roughly 220,000 compounds. About 8,200 (3.7%) were called active. Shown is part of a subset that was picked to be rich in actives.
Numbers only, in %.

See these solved cases before continuing.
INSERT INTO measurements (molsmiles, resultnumber) VALUES
  ('CCOc1c(Nc2cccc(Cl)c2)c(=O)c1=O', 18.3),
  ('O=C(/C=C/c1ccc(Cl)c([N+](=O)[O-])c1)c1ccc(O)cc1', -208);

For every item in the list below, what is its measured inhibition?
1. Cc1ccc(Nc2cc(C)nc3c(C)ccc([N+](=O)[O-])c23)cc1
2. Cc1ccc(Nc2ccc(C(N)=O)cc2[N+](=O)[O-])cc1
3. COc1ccccc1-n1c(-c2cc(-c3ccco3)[nH]n2)n[nH]c1=S
4. NNC(=O)c1cccc(COCC(F)(F)C(F)F)c1

71.4
21.8
-7.77
-3.75

----------
Assay: blockers of ER-stress CHOP reporter expression – cell-based, unfolded protein response, luciferase reporter, primary screen (AID 2732);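 further: 0% = tunicamycin plus vehicle and 100% = wells without tunicamycin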
Conditions: CHO-K1 CHOP-promoter luciferase, tunicamycin-induced, 15-18 h; at 10 µM; active compounds read high
Screen size: about 220,000 compounds; about 8,200 (3.7%) were called active. Shown is part of a subset that was picked to be rich in actives.
measurementLabel: inhibition (%)
Numbers only, in %.

INSERT INTO results (molecule, measurementlabel, resultnumber) VALUES
  ('CN=C1C=C/C(=N/N=c2\ccn(O)cc2C)C=C1C', 'inhibition', -15.3),
  ('O=C(NCc1cc(C(F)(F)F)cc(C(F)(F)F)c1)C1CC(c2cccc(F)c2)=NO1 (stereo not drawn)', 'inhibition', 20.1),
  ('CCOC(=O)N/N=C1\CC(C)S(=O)(=O)c2ccc(Cl)cc21 (stereo not drawn)', 'inhibition', -26.8),
  ('Cn1c(SCC(=O)c2ccc(F)cc2)nnc1-c1ccccn1', 'inhibition', 6.32);

For every item in the list below, what is its measured inhibition?
1. Cc1ccc(NC(=O)C/C(N)=N/O)cc1Cl
2. COc1ccc(/C=C2\SC(=N)N(c3ccc(F)cc3)C2=O)cc1

1: 1.88; 2: 38.3

For every item in the list below, what is its measured inhibition?
1. CC(C)(C)c1nc(NCC2CCCO2)c2nnn(Cc3ccccc3)c2n1 (stereo not drawn)
2. O=c1ccn(Cc2ccccc2Cl)cc1
3. COc1ccc(/C=C2/S/C(=N/N=C3\CC4CCC3(C)C4(C)C)NC2=O)cc1 (stereo not drawn)
4. O=c1c2c3c(sc2n(CCN2CCCC2)c(=O)n1Cc1ccccc1)CCCCC3
5. Cc1cccc(N2CCN(Cc3nc(C4CC4)no3)CC2)n1
6. COc1ccc(/C=C/C(=O)Nc2c(C)nn(C)c2C)cc1COc1ccc(Br)cc1
7. Cc1ccc(C(=O)NNc2ncnc3ccccc23)cc1
8. CC(C)C[C@H](CO)Nc1nc(N(C)c2cccc(Cl)c2)c2ncn(C(C)C)c2n1

71.1
68.6
88.5
44.2
-7.46
105
3.67
21.8

For every item in the list below, what is its measured inhibition?
1. CCOc1ccccc1C1C(C(=O)OC)=CN(C)C=C1C(=O)OC
2. COc1ccc(/C=C/C(=O)Nc2ccc3c(c2)OCCO3)cc1OC
3. COCCCn1c(-c2cccs2)nc2nc3ccccc3nc21
4. O=C(Nc1cccn(Cc2ccccc2Cl)c1=O)NC1CCCCC1
5. O=C(Nc1nnc(SCc2c(Cl)cccc2Cl)s1)c1cccc([N+](=O)[O-])c1
6. CCn1nc(C)c(NC(=O)/C=C/c2ccc(OC)c(COc3ccc(Br)cc3)c2)c1C
7. Cc1cc(N)n(-c2ccc(S(=O)(=O)N3CCCC3)cc2[N+](=O)[O-])n1

1. 2.4
2. -1
3. -15
4. 26.3
5. 30.6
6. 86.6
7. 7.68

For every item in the list below, what is its measured inhibition?
1. COc1ccc(/C=C/C(=O)Nc2ccc(C)cc2)cc1S(=O)(=O)N1CCOCC1
2. CC1(C)COC(c2cccn2Cc2ccccc2Cl)=N1

1. -1.01
2. 71.8

----------
Assay: blockers of ER-stress CHOP reporter expression – cell-based, unfolded protein response, luciferase reporter, primary screen (AID 2732);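 further: 0% = tunicamycin plus vehicle and 100% = wells without tunicamycin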
Details: CHO-K1 CHOP-promoter luciferase, tunicamycin-induced, 15-18 h; at 10 µM
Hit rate of the full screen: of about 220,000 compounds, about 8,200 (3.7%) were called active.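 Rule for the calls: active = compounds that reduced the stress-induced luciferase reporter signal by more than about 70% of percent inhibition (limit read from the data); inactive = the rest.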 The sample holds actives, similar compounds and a random draw of the others, so the mix is not that of the screen.
Choose the fitting class; nothing outside active, inactive is accepted.

Which result was noted for this molecule in the test: CNC1(c2nnnn2-c2c(C)cccc2C)CCOC(C)(C)C1 (stereo unspecified)
inactive

Which result was noted for this molecule in the test: `O=C(CCl)N(Cc1cccc([N+](=O)[O-])c1)c1cccc(Cl)c1`
active

Which result was noted for this molecule in the test: `CC(=O)Nc1nc2ccccc2n1Cc1ccc(C)cc1`
inactive

Which result was noted for this molecule in the test: `CC(=O)NC(=S)Nc1ccc(NC(=S)NC(=O)c2ccc([N+](=O)[O-])cc2)cc1`
inactive

Which result was noted for this molecule in the test: `O=C(Nc1cccc([N+](=O)[O-])c1)Nc1ccc(Cl)cn1`
inactive

Which result was noted for this molecule in the test: `CN(C)CCCN(Cc1cc2cc3c(cc2[nH]c1=O)OCCO3)C(=O)NC1CCCCC1`
inactive

Which result was noted for this molecule in the test: `Cc1ccc(Cn2c(NC(=O)c3ccco3)nc3ccccc32)cc1`
active

Which result was noted for this molecule in the test: `CCN(CC)C(=O)CN(c1cccc([N+](=O)[O-])c1)S(=O)(=O)c1ccccc1`
inactive

----------
Would you kindly list inhibition for each of these molecules?
Test: blockers of ER-stress CHOP reporter expression – cell-based, unfolded protein response, luciferase reporter, primary screen (AID 2732);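 further: 0% = tunicamycin plus vehicle and 100% = wells without tunicamycin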
Settings: CHO-K1 CHOP-promoter luciferase, tunicamycin-induced, 15-18 h; at 10 µM; active compounds read high
The whole screen tested about 220,000 compounds, of which about 8,200 (3.7%) were called active. For the sample, actives were picked, then their nearest neighbours and some compounds at random.
Give bare numbers, in %.

See these solved cases before continuing.
INSERT INTO results (molsmiles, resultnumber) VALUES
  ('Cc1noc(C)c1CSCC(=O)Nc1nc2ccc(Oc3ccccc3)cc2s1', 80.2),
  ('O=[N+]([O-])c1ccc(NCCCN2CCOCC2)c(Cl)c1', 13),
  ('O=C(NCCCN1CCOCC1)c1ccc([N+](=O)[O-])cc1[N+](=O)[O-]', -3.24),
  ('COc1ccc(Nc2nc(Cl)nc(NCc3ccco3)n2)cc1', 85),
  ('CC(=O)N1CCN(C(=O)Nc2cccc(C(F)(F)F)c2)CC1', 26.5);

For every item in the list below, what is its measured inhibition?
1. COc1cccc(Nc2nc(N)c([N+](=O)[O-])c(NCc3ccco3)n2)c1
2. Cc1cccc(NC(=O)c2cccc(C(F)(F)F)c2)c1
3. CSC1=N/C(=C\c2ccc3c(c2)OCO3)C(=O)S1

1: 38.9; 2: 2.04; 3: 79.4

For every item in the list below, what is its measured inhibition?
1. O=S(=O)(c1ccccc1)N1CN(Cc2ccc(F)cc2)c2nc3ccccc3nc21
2. CCn1c(SCC(=O)Nc2nc3ccc(OC)cc3s2)nnc1-c1ccoc1C

3.85
14.3

Entry `O=C1/C(=C/c2ccc3c(c2)OCO3)CCC/C1=C\c1ccc2c(c1)OCO2` — recorded inhibition = 10.8

----------
Assay: blockers of ER-stress CHOP reporter expression – cell-based, unfolded protein response, luciferase reporter, primary screen (AID 2732);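 further: 0% = tunicamycin plus vehicle and 100% = wells without tunicamycin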
Details: CHO-K1 CHOP-promoter luciferase, tunicamycin-induced, 15-18 h; at 10 µM
Screen size: about 220,000 compounds; about 8,200 (3.7%) were called active.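 How the source made its calls: active means compounds that reduced the stress-induced luciferase reporter signal by more than about 70% of percent inhibition (limit read from the data); inactive means the rest.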 This excerpt belongs to a sample that is enriched for actives.
Choose the fitting class; nothing outside y (active), n (inactive) is accepted.

Solved entries:
INSERT INTO results (compound, assignedlabel) VALUES
  ('CCCN(CCC)S(=O)(=O)c1ccc(C(=O)N2CC3CCC(CC3)C2)cc1', 'n'),
  ('Cc1ccc(Cl)c(OCC(=O)NN2CCN(C)CC2)c1', 'n'),
  ('O=C(Cc1ccccc1)Nc1c(Cl)ccc2nsnc12', 'n'),
  ('CC(C)(C)c1ccc(/C=C2\Oc3c(ccc(O)c3CN3CCN(CCO)CC3)C2=O)cc1', 'n'),
  ('O=[N+]([O-])c1cc(S(=O)(=O)CCCN2CCOCC2)ccc1F', 'y');

Then there is this compound:
Which result was noted for this compound in the test: COC(=O)C1=C(C)N(C)C(=S)NC1c1ccccc1 (stereo unspecified)
n
